Test Details: Selectivity index, ratio of IC50 for electric eel AChE to IC50 for equine serum BuChE

{"columns": ["Compound", "Ratio IC50"],
 "data": [
  ["O=C1C(Cc2ccccc2)N(S(=O)(=O)c2ccc(Br)cc2)C(=O)C(Cc2ccccc2)N1S(=O)(=O)c1ccc(Br)cc1 (centres undefined)", 0.3],
  ["O=C1C(Cc2ccccc2)N(S(=O)(=O)c2cccc(Br)c2)C(=O)C(Cc2ccccc2)N1S(=O)(=O)c1cccc(Br)c1 (centres undefined)", 0.4],
  ["O=C1C(c2ccccc2)N(S(=O)(=O)c2ccc(Cl)cc2)C(=O)C(c2ccccc2)N1S(=O)(=O)c1ccc(Cl)cc1 (centres undefined)", 0.2],
  ["O=C1C(Cc2ccccc2)N(S(=O)(=O)c2ccc(Cl)cc2)C(=O)C(Cc2ccccc2)N1S(=O)(=O)c1ccc(Cl)cc1 (centres undefined)", 0.2]
]}
